SYSTEM TESTED: T1, human nectin-4 protein expressed on the surface of cells (human, UniProt Q96NY8 32-510)
T1 sequence: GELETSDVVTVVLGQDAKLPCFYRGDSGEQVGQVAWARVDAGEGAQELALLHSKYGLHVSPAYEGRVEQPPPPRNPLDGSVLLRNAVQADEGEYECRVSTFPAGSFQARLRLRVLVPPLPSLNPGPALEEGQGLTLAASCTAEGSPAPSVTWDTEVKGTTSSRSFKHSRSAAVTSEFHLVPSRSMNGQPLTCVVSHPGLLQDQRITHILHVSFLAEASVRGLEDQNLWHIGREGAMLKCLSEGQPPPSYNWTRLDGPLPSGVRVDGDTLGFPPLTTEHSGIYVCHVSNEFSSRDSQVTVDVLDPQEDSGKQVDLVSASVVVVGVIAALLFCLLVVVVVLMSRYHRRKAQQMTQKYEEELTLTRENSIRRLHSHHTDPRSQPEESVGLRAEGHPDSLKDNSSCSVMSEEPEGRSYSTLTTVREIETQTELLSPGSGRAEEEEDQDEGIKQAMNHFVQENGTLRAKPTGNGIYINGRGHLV
PROTOCOL SUMMARY: cell-based or functional assay
I'd be grateful if you could share measured Cell kill IC50, HekNectin4 for these entries.
Answer in nM, number only, no unit symbol.

[Q] Please look at this binder and report its Cell kill IC50, HekNectin4: Nectin-4 5D9 VH4/VL5 (antibody, V domains shown, Humanized; also called 5D9 VH variant 4 / 5D9 VL variant 5; Nectin-4 VH4/VL5) VH: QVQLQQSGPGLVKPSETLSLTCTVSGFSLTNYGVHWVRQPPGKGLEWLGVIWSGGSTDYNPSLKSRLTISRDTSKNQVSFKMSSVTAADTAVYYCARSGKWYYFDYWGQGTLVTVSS VL: DIQMTQSPSSLSASVGDRVTITCRASQSIYSNLAWYQQKPGKAPKLLVYAATNLQSGVPSRFSGSGSGTDFTLTISSLQPEDFATYYCQHFWGTPTFGGGTKVEIK
[A] 0.269

[Q] Supply measured Cell kill IC50, HekNectin4 of Nectin-4 5D9 VH3/VL1 (antibody, V domains shown, Humanized; also called 5D9 VH variant 3 / 5D9 VL variant 1) VH: QVQLQESGPGLVKPSETLSLTCTVSGGSITNYGVHWIRQPPGKGLEWLGVIWSGGSTDYNPSLKSRVTISVDTSKNQFSLKLSSVTAADTAVYYCARSGKWYYFDYWGQGTLVTVSS VL: DIQMTQSPASLSASVGDTVTITCRASQNIYSNLAWYQQKQGKSPQLLVYAATNLADGVPSRFSGSGSGTQYTLKINSLQSEDFGTYYCQHFWGTPTFGGGTKVEIK in your reply.
[A] 73.3

[Q] Tell me measured Cell kill IC50, HekNectin4 for Nectin-4 5D9 VH2/VL2 (antibody, V domains shown, Humanized; also called 5D9 VH variant 2 / 5D9 VL variant 2) VH: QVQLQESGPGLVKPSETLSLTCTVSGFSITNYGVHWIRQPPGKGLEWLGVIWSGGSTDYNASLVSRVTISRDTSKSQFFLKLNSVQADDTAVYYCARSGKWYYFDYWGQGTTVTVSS VL: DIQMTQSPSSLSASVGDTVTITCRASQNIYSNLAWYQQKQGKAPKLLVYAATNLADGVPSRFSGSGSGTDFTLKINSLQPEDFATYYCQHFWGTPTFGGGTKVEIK please.
[A] 55.5
